Assay system hMCHR (Homo sapiens, UniProt Q99705); read-out recorded as Ki.
Outcome Measure: Ki

[[record]]
structure_smiles = "CN1CCC(CN2CCN(c3ccc(F)c(F)c3)C2=O)(c2ccc(-c3cccc(C#N)c3)cc2)CC1"
outcome_measure = "Ki"
result = "11 to 100 nM"

[[record]]
structure_smiles = "CC(C)COC(=O)NCC1(c2ccc(-c3cccc(C#N)c3)cc2)CCN(CC2CC2)CC1"
outcome_measure = "Ki"
result = "101 to 5500 nM"

[[record]]
structure_smiles = "O=C(NCC1(c2ccc(-c3cccc(Cl)c3)cc2)CCN(CC2CC2)CC1)Nc1ccc(F)c(Cl)c1"
outcome_measure = "Ki"
result = "0.2 to 10 nM"

[[record]]
structure_smiles = "CN1CCC2(CC1)CN(C(=O)Nc1ccc(F)c(Cl)c1)c1cc(-c3cccc(C#N)c3)ccc12"
outcome_measure = "Ki"
result = "101 to 5500 nM"


----------
The next entries give measured pKi for UniProt Q99705.
pKi: −log10 of the molar value.
Outcome Measure: pKi

[[record]]
structure_smiles = "COCCN1CCC(CNC(=O)Nc2cc(Cl)cc(Cl)c2)(c2ccc(-c3cccc(Cl)c3)cc2)CC1"
outcome_measure = "pKi"
result = "8.00 to 9.70"

[[record]]
structure_smiles = "CN1CCC(CNC(=O)Nc2cc(Cl)cc(Cl)c2)(c2ccc(-c3cc4ccccc4o3)cc2)CC1"
outcome_measure = "pKi"
result = "5.26 to 7.00"

[[record]]
structure_smiles = "N#Cc1cccc(-c2ccc(C3(CNC(=O)Nc4ccc(F)c(C(F)(F)F)c4)CCN(CC4CC4)CC3)cc2)c1"
outcome_measure = "pKi"
result = "8.00 to 9.70"

[[record]]
structure_smiles = "CN1CCC(CNC(=O)Nc2cc(C(F)(F)F)ccc2Cl)(c2ccc(-c3cccc(Cl)c3)cc2)CC1"
outcome_measure = "pKi"
result = "7.00 to 7.96"

[[record]]
structure_smiles = "CN1CCC(CN(C)C(=O)Nc2cc(Cl)cc(Cl)c2)(c2ccc(-c3cccc(C#N)c3)cc2)CC1"
outcome_measure = "pKi"
result = "8.00 to 9.70"

[[record]]
structure_smiles = "CCCN1CCC(CNC(=O)Nc2ccc(Cl)cc2C(F)(F)F)(c2ccc(-c3cccc(Cl)c3)cc2)CC1"
outcome_measure = "pKi"
result = "5.26 to 7.00"

[[record]]
structure_smiles = "CN1CCC(CNC(=O)Nc2cc(Cl)cc(Cl)c2)(c2ccc(-c3ccc4[nH]ccc4c3)cc2)CC1"
outcome_measure = "pKi"
result = "5.26 to 7.00"

[[record]]
structure_smiles = "CN1CCC(C(=O)NCc2cc(Cl)cc(Cl)c2)(c2ccc(-c3cccc(C#N)c3)cc2)CC1"
outcome_measure = "pKi"
result = "5.26 to 7.00"

[[record]]
structure_smiles = "CCCN1CCC2(CC1)CN(C(=O)Nc1ccc(F)c(Cl)c1)c1ccc(-c3cccc(C#N)c3)cc12"
outcome_measure = "pKi"
result = "5.26 to 7.00"

[[record]]
structure_smiles = "O=C(NCC1(c2ccc(-c3cccc(Cl)c3)cc2)CCN(CC2CC2)CC1)Nc1ccc(Cl)cc1C(F)(F)F"
outcome_measure = "pKi"
result = "5.26 to 7.00"

[[record]]
structure_smiles = "CCCN1CCC(CNC(=O)Nc2cc(C(F)(F)F)ccc2Cl)(c2ccc(-c3cccc(C#N)c3)cc2)CC1"
outcome_measure = "pKi"
result = "7.00 to 7.96"

[[record]]
structure_smiles = "CCCN1CCC(CNC(=O)Nc2cc(C(F)(F)F)ccc2Cl)(c2ccc(-c3cccc(Cl)c3)cc2)CC1"
outcome_measure = "pKi"
result = "5.26 to 7.00"

[[record]]
structure_smiles = "COCCN1CCC(CNCc2cc(Cl)cc(Cl)c2)(c2ccc(-c3cccc(C#N)c3)cc2)CC1"
outcome_measure = "pKi"
result = "5.26 to 7.00"

[[record]]
structure_smiles = "N#Cc1cccc(-c2ccc(C3(CN(CC4CC4)CC4CC4)CCN(C(=O)Nc4cc(Cl)cc(Cl)c4)CC3)cc2)c1"
outcome_measure = "pKi"
result = "5.26 to 7.00"

[[record]]
structure_smiles = "COc1ccc(-c2ccc(C3(CNC(=O)Nc4cc(Cl)cc(Cl)c4)CCN(C)CC3)cc2)cn1"
outcome_measure = "pKi"
result = "7.00 to 7.96"

[[record]]
structure_smiles = "CN1CCC2(CC1)CN(C(=O)Nc1ccc(F)c(Cl)c1)c1cccc(-c3cccc(C#N)c3)c12"
outcome_measure = "pKi"
result = "5.26 to 7.00"

[[record]]
structure_smiles = "CC(C)N1CCC(CNC(=O)Nc2cc(Cl)cc(Cl)c2)(c2ccc(-c3cccc(Cl)c3)cc2)CC1"
outcome_measure = "pKi"
result = "8.00 to 9.70"

[[record]]
structure_smiles = "CC(C)CN1CCC(CNC(=O)Nc2cc(Cl)cc(Cl)c2)(c2ccc(-c3cccc(Cl)c3)cc2)CC1"
outcome_measure = "pKi"
result = "7.00 to 7.96"

[[record]]
structure_smiles = "N#Cc1cccc(-c2ccc(C3(CNC(=O)Nc4cc(F)cc(F)c4)CCN(CC4CC4)CC3)cc2)c1"
outcome_measure = "pKi"
result = "8.00 to 9.70"

[[record]]
structure_smiles = "CCCN1CCC(CNC(=O)Nc2cc(Cl)cc(Cl)c2)(c2ccc(-c3cccc(Cl)c3)cc2)CC1"
outcome_measure = "pKi"
result = "8.00 to 9.70"

[[record]]
structure_smiles = "CCCN1CCC(CNC(=O)Nc2ccc(Cl)c(C(F)(F)F)c2)(c2ccc(-c3cccc(C#N)c3)cc2)CC1"
outcome_measure = "pKi"
result = "8.00 to 9.70"

[[record]]
structure_smiles = "CN1CCC(CNC(=O)Nc2ccc(F)c(F)c2)(c2ccc(-c3cccnc3)cc2)CC1"
outcome_measure = "pKi"
result = "7.00 to 7.96"

[[record]]
structure_smiles = "CN1CCC(CNC(=O)Nc2cc(Cl)cc(Cl)c2)(c2cccc(Cl)c2)CC1"
outcome_measure = "pKi"
result = "5.26 to 7.00"

[[record]]
structure_smiles = "N#Cc1cccc(-c2ccc(C3(CNC(=O)Nc4cc(Cl)cc(Cl)c4)CCN(CCC(F)(F)F)CC3)cc2)c1"
outcome_measure = "pKi"
result = "8.00 to 9.70"

[[record]]
structure_smiles = "COCCN1CCC(CNC(=O)Nc2ccc(Cl)c(C(F)(F)F)c2)(c2ccc(-c3cccc(C#N)c3)cc2)CC1"
outcome_measure = "pKi"
result = "8.00 to 9.70"

[[record]]
structure_smiles = "CC(C)CN1CCC(CNC(=O)Nc2cc(Cl)cc(Cl)c2)(c2ccc(-c3cccc(C#N)c3)cc2)CC1"
outcome_measure = "pKi"
result = "7.00 to 7.96"

[[record]]
structure_smiles = "CN1CCC(CNC(=O)Cc2ccc(Cl)c(Cl)c2)(c2ccc(-c3cccc(C#N)c3)cc2)CC1"
outcome_measure = "pKi"
result = "7.00 to 7.96"

[[record]]
structure_smiles = "CCCCN1CCC(CNC(=O)Nc2cc(Cl)cc(Cl)c2)(c2ccc(-c3cccc(Cl)c3)cc2)CC1"
outcome_measure = "pKi"
result = "7.00 to 7.96"

[[record]]
structure_smiles = "COCCN1CCC2(CC1)CN(C(=O)Nc1ccc(F)c(Cl)c1)c1ccc(-c3cccc(C#N)c3)cc12"
outcome_measure = "pKi"
result = "5.26 to 7.00"

[[record]]
structure_smiles = "COCCN1CCC(CNC(=O)Nc2cc(Cl)cc(Cl)c2)(c2ccc(-c3cccc(CO)c3)cc2)CC1"
outcome_measure = "pKi"
result = "8.00 to 9.70"

